tested on: Pancreatin; assay: Protease stability in simulated intestinal fluid (Pancreatin-SIF, FaSSIF); assay type: in vitro ADME; settings: 240 min, 1 μM peptide, 37° C., read-out: FaSSIF 240 (min), remaining percent of peptide
Starred links: 1 amine or outer side, 2 acyl side, 3 side chain; linkers in the order of their positions; H or OH if unused. Positions of bridges follow the written chain, without caps; N, C: chain ends. Non-standard residues stand in square brackets, D forms with d. Residues, ends and D or L forms follow the SMILES beside them. *: point of attachment. X1 = O=C(CCCCN[*:3])N[C@@H](CS[*:2])C(=O)[*:1]; 2Nal = N[C@@H](Cc1ccc2ccccc2c1)C(=O)O; Thp = NC1(C(=O)O)CCOCC1; Me2NCH2CH2 = CN(C)CC*
Listed here: items and their measured remaining at 4 h, 1 µM.
Reported metric: remaining at 4 h, 1 µM (%)

- COc1ccc(C[C@@H]2NC(=O)[C@@H]3CSSC[C@H](NC(=O)CCC(=O)NCCCC[C@@H](C(=O)N[C@@H](CC(N)=O)C(=O)N[C@@H](CC(N)=O)C(N)=O)NC(=O)C(C)(C)NC(=O)[C@H](Cc4ccc5ccccc5c4)NC2=O)C(=O)N[C@@H](CC(N)=O)C(=O)N[C@@H]([C@@H](C)O)C(=O)N[C@@H](Cc2c[nH]c4ccccc24)C(=O)N[C@@H](CCC(N)=O)C(=O)N3)cc1: 65
- CC(=O)N[C@H]1CCCCNC(=O)[C@@H]2CSSC[C@H](NC(=O)[C@H](CCC(N)=O)NC(=O)[C@H](Cc3c[nH]c4ccccc34)NC1=O)C(=O)N[C@@H](Cc1ccc(OCCN(C)C)cc1)C(=O)N[C@@H](Cc1ccc3ccccc3c1)C(=O)NC1(CCOCC1)C(=O)N[C@H](C(=O)N[C@@H](C)C(=O)N[C@H](CC(C)C)C(N)=O)CCC(=O)NCCCCC(=O)N2 [compound 33] (Ac-KWQCY(Me2NCH2CH2)[2Nal][Thp]EA[dL]-NH2; linker 1-4-8 via X1): 85
- CC(=O)NCCCC[C@@H]1NC(=O)[C@H](Cc2c[nH]c3c(C)cccc23)NC(=O)[C@H]([C@@H](C)O)NC(=O)[C@H](CC(N)=O)NC(=O)[C@@H]2CSSC[C@H](NC1=O)C(=O)N[C@@H](Cc1ccc(OCCN(C)C)cc1)C(=O)N[C@H](Cc1ccc3ccccc3c1)C(=O)NC1(CCOCC1)C(=O)N[C@H](C(=O)N[C@@H](CC(N)=O)C(=O)N[C@@H](Cc1cccnc1)C(=O)N(C)CC(N)=O)CCC(=O)NCCCCC(=O)N2: 92
